Where do these numbers come from? They come from patent US8748624B2.

# Target Entity: human glucagon receptor (GCGR) (Homo sapiens (Human))
# Sequence (P47871 26-477): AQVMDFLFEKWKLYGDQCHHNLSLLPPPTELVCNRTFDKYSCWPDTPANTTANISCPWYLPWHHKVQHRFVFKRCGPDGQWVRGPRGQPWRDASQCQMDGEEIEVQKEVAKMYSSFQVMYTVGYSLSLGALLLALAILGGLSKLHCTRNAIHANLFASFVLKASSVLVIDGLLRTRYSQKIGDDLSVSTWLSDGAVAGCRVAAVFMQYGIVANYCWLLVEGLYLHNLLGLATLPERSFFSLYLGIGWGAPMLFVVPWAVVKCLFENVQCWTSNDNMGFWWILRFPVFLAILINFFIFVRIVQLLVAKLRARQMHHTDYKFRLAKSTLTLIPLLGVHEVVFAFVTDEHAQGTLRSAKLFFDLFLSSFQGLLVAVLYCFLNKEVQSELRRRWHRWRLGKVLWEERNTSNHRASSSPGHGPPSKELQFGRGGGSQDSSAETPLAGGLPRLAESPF
# Assay Explanation: Inhibition of 125I-glucagon binding to membranes from HEK293 cells expressing the human glucagon receptor
# Description: Inhibition ^125I-Glucagon Binding to Membranes from HEK293 Cells Expressing the Human Glucagon Receptor (GCGR) Full-length human GCGR (Accession Number: NM000160) subcloned into pcDNA3.1 was stably transfected into HEK293 cells (hGluc-1 HEK) and maintained under G418 selection (500 μg/mL). Cell cultures were maintained in DMEM/F12 media supplemented with 10% FBS and 1% GlutaMax. […] Total counts retained by the filters were quantified with a Top Count instrument. […]
pKi: −log10 of the molar value.
Measured Attribute: pKi

[[record]]
smiles_string = "O=C(O)CCNC(=O)c1ccc(-c2cc(Cl)ccc2CNc2ccc(-c3ccc(F)cc3Cl)c(Cl)c2)cn1"
endpoint_value = 7.64

[[record]]
smiles_string = "COc1ccc(-c2ccc(C(=O)NCCC(=O)O)nc2)c(CNc2ccc(-c3ccc(Cl)c(Cl)c3)cc2)c1"
endpoint_value = 7.01

